System Under Test: CouR (Rhodococcus jostii, UniProt Q0S6D0, R38A)
Construct: full-length
Sequence (Q0S6D0 entry or part of it R38A): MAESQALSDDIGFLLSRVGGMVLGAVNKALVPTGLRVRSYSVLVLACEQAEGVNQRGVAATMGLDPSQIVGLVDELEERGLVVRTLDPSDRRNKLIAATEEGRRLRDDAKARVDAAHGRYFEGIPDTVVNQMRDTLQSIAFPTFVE
Assay: ITC
pKd: −log10 of the molar value.
Quantity: pKd

CC(C)(COP(=O)(O)OP(=O)(O)OC[C@H]1O[C@@H](n2cnc3c(N)ncnc32)[C@H](O)[C@@H]1OP(=O)(O)O)[C@@H](O)C(=O)NCCC(=O)NCCSC(=O)/C=C/c1ccc(O)cc1	4.60

---

System Under Test: CouR (Rhodococcus jostii, UniProt Q0S6D0, R36A/R38A)
Construct: full-length
Sequence (Q0S6D0 entry or part of it R36A/R38A): as the sequence (Q0S6D0 entry or part of it R38A) above
Assay: ITC
Quantity: Kd (µM)

CC(C)(COP(=O)(O)OP(=O)(O)OC[C@H]1O[C@@H](n2cnc3c(N)ncnc32)[C@H](O)[C@@H]1OP(=O)(O)O)[C@@H](O)C(=O)NCCC(=O)NCCSC(=O)/C=C/c1ccc(O)cc1 [p-coumaroyl–CoA]	89

---

System Under Test: CouR (Rhodococcus jostii)
Construct: full-length, homodimer; crystal model residues 4–146
Assay: ([…] Å) and ITC; EMSA in support
pKd: −log10 of the molar value.
Quantity: pKd

CC(C)(COP(=O)(O)OP(=O)(O)OC[C@H]1O[C@@H](n2cnc3c(N)ncnc32)[C@H](O)[C@@H]1OP(=O)(O)O)[C@@H](O)C(=O)NCCC(=O)NCCSC(=O)/C=C/c1ccc(O)cc1 [p-coumaroyl–CoA]	4.96
